Molecular target: T1, cHER3ECD (Maccaca fascicularis HER3 extracellular domain) (Macaca fascicularis, UniProt P21860 20-643 (human entry))
T1 construct: also called cyno HER3ECD; cyno HER3-ECD
T1 chain: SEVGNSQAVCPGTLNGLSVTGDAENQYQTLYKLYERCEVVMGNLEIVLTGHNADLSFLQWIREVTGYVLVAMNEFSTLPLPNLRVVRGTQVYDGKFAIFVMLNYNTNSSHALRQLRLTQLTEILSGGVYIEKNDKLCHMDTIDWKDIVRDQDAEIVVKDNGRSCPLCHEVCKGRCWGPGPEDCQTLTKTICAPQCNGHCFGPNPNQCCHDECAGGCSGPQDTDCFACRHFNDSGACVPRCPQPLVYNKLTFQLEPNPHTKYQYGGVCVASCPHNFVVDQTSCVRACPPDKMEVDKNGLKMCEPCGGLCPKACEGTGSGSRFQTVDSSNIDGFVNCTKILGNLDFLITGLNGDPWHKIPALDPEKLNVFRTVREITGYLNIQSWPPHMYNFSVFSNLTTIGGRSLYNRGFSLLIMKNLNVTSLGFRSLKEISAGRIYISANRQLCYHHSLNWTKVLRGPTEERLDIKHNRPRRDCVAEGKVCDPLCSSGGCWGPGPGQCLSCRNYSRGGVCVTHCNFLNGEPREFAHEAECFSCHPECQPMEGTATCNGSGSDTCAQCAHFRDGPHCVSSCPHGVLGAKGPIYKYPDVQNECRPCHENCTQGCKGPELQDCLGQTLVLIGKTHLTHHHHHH
Assay: ELISA, coated cHER3-ECD
value type: EC50 (pM)

- binder: "05A09 (VHH) VHH: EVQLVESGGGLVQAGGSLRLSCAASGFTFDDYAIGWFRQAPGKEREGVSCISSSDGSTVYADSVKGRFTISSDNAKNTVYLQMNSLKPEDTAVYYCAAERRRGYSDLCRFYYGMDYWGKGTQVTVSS"
  endpoint result: 1300
- binder: "21B02 (VHH) VHH: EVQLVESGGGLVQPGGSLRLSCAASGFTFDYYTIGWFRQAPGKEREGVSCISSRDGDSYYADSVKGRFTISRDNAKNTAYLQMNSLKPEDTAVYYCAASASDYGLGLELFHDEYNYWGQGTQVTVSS"
  endpoint result: 900
- binder: "21F06 (VHH, c-myc, His6-tagged form as expressed; also called 21F6; HER3MS21F06) VHH: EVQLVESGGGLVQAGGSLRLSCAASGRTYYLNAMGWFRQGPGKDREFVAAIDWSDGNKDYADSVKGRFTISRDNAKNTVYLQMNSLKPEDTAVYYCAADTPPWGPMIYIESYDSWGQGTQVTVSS"
  endpoint result: 320
- binder: "17B05 (VHH, also called HER3MS17B05; HER3MS017B05) VHH: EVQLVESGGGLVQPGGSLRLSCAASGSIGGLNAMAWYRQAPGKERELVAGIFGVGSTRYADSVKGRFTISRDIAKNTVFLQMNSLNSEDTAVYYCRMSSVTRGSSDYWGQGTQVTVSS"
  endpoint result: 660
- binder: "17C08 (VHH, also called 17C8) VHH: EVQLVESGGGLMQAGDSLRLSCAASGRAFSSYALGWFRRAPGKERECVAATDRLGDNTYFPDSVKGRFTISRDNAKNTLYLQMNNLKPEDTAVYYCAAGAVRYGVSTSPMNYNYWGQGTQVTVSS"
  endpoint result: 590
- binder: "17E08 (VHH) VHH: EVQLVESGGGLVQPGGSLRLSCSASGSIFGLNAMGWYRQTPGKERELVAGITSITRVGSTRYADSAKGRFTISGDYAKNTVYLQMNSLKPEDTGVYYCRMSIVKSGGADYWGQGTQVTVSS"
  endpoint result: 1150
- binder: "34A04 (VHH) VHH: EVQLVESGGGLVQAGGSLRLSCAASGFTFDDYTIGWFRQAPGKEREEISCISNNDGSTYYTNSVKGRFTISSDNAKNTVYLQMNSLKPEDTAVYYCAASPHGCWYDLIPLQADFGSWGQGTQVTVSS"
  endpoint result: 490
- binder: "18F05 (VHH, also called 18F5) VHH: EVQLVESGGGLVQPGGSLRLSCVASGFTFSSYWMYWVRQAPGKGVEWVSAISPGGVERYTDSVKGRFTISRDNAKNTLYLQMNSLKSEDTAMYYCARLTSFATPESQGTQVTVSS"
  endpoint result: 290
